- Study System: Sialic acid-binding Ig-like lectin 9 (Homo sapiens) (UniProt Q9Y336)
- Sequence (Q9Y336 whole entry): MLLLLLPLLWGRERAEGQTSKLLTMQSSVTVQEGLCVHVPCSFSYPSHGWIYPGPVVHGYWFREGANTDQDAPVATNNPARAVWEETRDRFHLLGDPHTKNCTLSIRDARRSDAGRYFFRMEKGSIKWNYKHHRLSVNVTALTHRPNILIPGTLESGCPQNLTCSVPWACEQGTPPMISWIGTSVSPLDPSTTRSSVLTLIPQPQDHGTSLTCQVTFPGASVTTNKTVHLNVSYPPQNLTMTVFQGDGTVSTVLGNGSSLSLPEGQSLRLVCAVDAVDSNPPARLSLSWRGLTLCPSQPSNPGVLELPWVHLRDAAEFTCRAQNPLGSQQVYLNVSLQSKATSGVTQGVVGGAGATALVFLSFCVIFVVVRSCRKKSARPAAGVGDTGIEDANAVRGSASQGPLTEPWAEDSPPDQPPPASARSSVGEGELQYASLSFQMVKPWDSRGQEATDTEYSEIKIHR
- Experiment Notes: Hs-Siglec9 ALPHAscreen SOP 20170721
- Set-up: scale not given: direction of the effect not stated beside the values
- Condition Parameters: 10 µM
Result Type: Percent Effect (%)

* CC(C)c1n[nH]c(C(=O)Nc2ccncc2)c1Br | 0.333
* O=C(NCCOc1ncc(Cl)cc1Cl)c1ccncc1 | 4.2
* CCc1ccc(NC(=O)N2C[C@H]3C[C@H](C(=O)NC)[C@@H](C2)O3)cc1 | -3.01
* CN(Cc1cnn(C)c1)C(=O)NC1CCN(c2ncccn2)CC1 | -4.13
* Cc1nn(C)c(C)c1NC(=O)CN1CCc2c(nc(C(C)C)n2C)C1 | 18.4
* CC(C)N1CCOCC2(CN(Cc3ccco3)CCO2)C1 (configuration not stated) | 4.65
* CN(C)Cc1nn(C)c2c1CCN(S(=O)(=O)c1cccs1)C2 | -2.7
* O=C(c1cn(-c2cc(N3CCOCC3)ncn2)cn1)N1CCSCC1 | 4.82
* Cc1cnn(CCNCc2csc(C)n2)c1 | -3.7
* Cc1ccc(-c2cc(CNC(=O)N3CCC(CO)CC3)on2)cc1 | -3.05
* Cc1ccc(C(=O)N2CCC3(CC2)CC(c2ccccc2)C(=O)N3)cn1 (configuration not stated) | -1.61
* CCc1n[nH]c(C2CN(C(=O)c3cnc[nH]3)CCO2)n1 (configuration not stated) | 7.55

###

- Species: Homo sapiens
- Experiment Notes: To identify inhibition of the IFN signalling (Jak-Stat) pathway via expression of an eGFP reporter gene under the control of an IFN-stimulated response element (ISRE) containing MxA promoter.
- Type: functional
- Design: scale not given: direction of the effect not stated beside the values
- Condition Parameters: 30 µM
The label T is reserved for Percent Effect strictly under 10%; F covers values equal to or above it.

- O=C(NCC1CCOCC1)[C@H]1C[C@@H]2CCN(Cc3ccncc3)C[C@@H]2O1: T
- O=C(NCC1CC1)[C@H]1C[C@@H]2CN(S(=O)(=O)Cc3ccccc3)C[C@H]1O2: F
- CCOc1cc(C(=O)N2CCCC(c3cc(C(N)=O)[nH]n3)C2)ccn1 (stereo unspecified): T
- O=C(c1cccc(CNS(=O)(=O)c2ccccc2F)c1)N1CCCC1: F
- O=C(Cn1cc(C(=O)O)ccc1=O)NCc1ccc(F)c(Cl)c1: F
- CN(C(=O)Cc1ccc(NC(=O)NC2CCC2)cc1)c1ccccc1: T
- CC(C)S(=O)(=O)N1CCC(c2cc3n(n2)[C@@H](C(F)(F)F)C[C@@H](C)N3)C1 (stereo partly specified): T
- Cc1ccc(C)c(-c2csc(N)c2C#N)c1: F
- Cc1cc(-c2cnc(N3CCNC(=O)C3)nc2-c2ccc(C)o2)on1: F
- CC(C)CN1Cc2c(C(=O)N(C)C)ncn2-c2ccccc2S1(=O)=O: T
- COCCN(C)Cc1ccc(OC)c(OC(F)F)c1: T
- COCCN1CCN(CCS(=O)(=O)C(F)(F)F)CC1C (stereo unspecified): F
- CCN(CC1CCCO1)C(=O)Nc1ccc(F)cc1OC (stereo unspecified): T
- Cc1cccc(N2Cc3nc(=O)[nH]n3C2=O)c1: T
- O=C(Nc1nccs1)N(CCO)Cc1ccsc1: T
- O=C(CCc1cscn1)NS(=O)(=O)c1ccc2ccccc2c1: T
- CCn1nc(CC(C)C)cc1C(=O)N1CC[C@@H](O)C1: T
- CC(C)c1nc2n(n1)CC(NCc1ccncc1)CC2 (stereo unspecified): T
- CCCn1[nH]cc/c1=N\C(=O)CN1CCn2c(nnc2C2CC2)C1: F
- CCc1ncc2c(n1)CN(Cc1nc(-c3ccsc3)oc1C)CC2: T
- CCN(Cc1ccc2c(c1)OCO2)C(=O)NC(C)Cn1cccn1 (stereo unspecified): T
- Nc1cc2c(nn1)CCN(C(=O)c1cccc3c1OCCO3)C2: F
- Cc1nn(-c2ccccc2)nc1C(=O)N1CCCC1c1cnn(C)c1 (stereo unspecified): F
- NC(=O)C(CNC(=O)Cc1ccc(F)cc1)Cc1ccc(F)cc1 (stereo unspecified): F
- COc1ccc(CN2C[C@@H](OCc3ccccn3)[C@H]3COC[C@H]32)cc1: F
- COc1ccc(CN2CCc3ncnc(C4CCOC4)c3CC2)cc1 (stereo unspecified): F
- Cc1cnc(N)c(C(=O)C2CCN(C(=O)c3ccccc3F)CC2)c1: F
- Cc1nc(C)n(C2CCCN(C(=O)COCc3ccccc3)C2)n1 (stereo unspecified): T
- O=C1CC[C@H]2[C@H](CCN2C(=O)C2CCCO2)N1CCN1CCCC1 (stereo partly specified): T
- Cc1ccccc1CN1CCC(NCC2CNc3ccnn3C2)CC1 (stereo unspecified): T
- Cc1nc(N2CCN(C(=O)c3ccccc3)CC2)c2c(n1)c(C)nn2C: F
- COc1ccccc1CC(=O)N1CCC(NCc2c[nH]nc2C)CC1: T
- COc1cccc(C2CCCN2Cc2nc3c(cnn3C)c(=O)[nH]2)c1 (stereo unspecified): F
- Cc1ccc(OCCC(=O)NC2CCc3nccn3C2)cc1 (stereo unspecified): T
- CCC(C(=O)NCc1ccncc1)N(c1ccc(OC)cc1)S(C)(=O)=O (stereo unspecified): T
- Cn1cccc1CN1CCC2(CCCN(C(=O)c3cnccn3)C2)C1 (stereo unspecified): F
- CCOC[C@@H]1CCC[C@@]12CN(Cc1nccs1)CCO2: F
- Cc1ccc(C(=O)N2CCSCC2)cc1NC(=O)Cn1cncn1: T
- CNS(=O)(=O)c1cccc(CNc2ccc(C(F)(F)F)nn2)c1: F
- N#Cc1cccc(C(=O)N2CCc3ncc(Cn4cccn4)n3CC2)c1: T
- C=C(C)CN(Cc1cccc(O)c1)C1CCC(O)CC1 (stereo unspecified): T
- Cc1ccc(CN2C[C@@H]3COC[C@H](C(=O)N4CCCCO4)[C@@H]3C2)o1: T
- CCOc1ccc(N(CC(=O)c2ccccc2)C2=NCCCCC2)cc1: T
- CN(C)CC(=O)N1CCOCC2(C1)CN(c1ccccc1)C(=O)CO2 (stereo unspecified): T
- Cc1nc(CCCNC(=O)C2CC(=O)N(C(C)(C)C)C2)sc1C (stereo unspecified): F

###

A collection of molecules and their measured Percent Effect
- Study System: Arginase-2, mitochondrial (Homo sapiens) (UniProt P78540)
- Sequence (P78540 whole entry): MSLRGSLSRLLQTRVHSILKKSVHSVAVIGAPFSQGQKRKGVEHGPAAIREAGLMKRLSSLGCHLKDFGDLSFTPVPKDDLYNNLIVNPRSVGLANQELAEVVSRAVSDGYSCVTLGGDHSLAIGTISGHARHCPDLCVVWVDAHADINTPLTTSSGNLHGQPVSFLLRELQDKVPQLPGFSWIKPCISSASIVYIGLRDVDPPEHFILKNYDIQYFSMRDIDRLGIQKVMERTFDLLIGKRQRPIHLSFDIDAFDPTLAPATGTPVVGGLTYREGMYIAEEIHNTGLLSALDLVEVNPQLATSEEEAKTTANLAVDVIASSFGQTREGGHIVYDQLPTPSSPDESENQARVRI
- Experiment Notes: in vitro enzyme assay to detect the production of urea directly proportional to the activity of Arginase II; also: in the data most compounds retested in dose-response had high values
- Assay type: functional
- Design: scale not given: direction of the effect not stated beside the values
- Condition Parameters: 33.3 µM
Result Type: Percent Effect

* O=c1cc2c(nn1CN1CCN(c3cccc(Cl)c3)CC1)CCC2 | -6.87%
* Cc1ccc(N2CCC3(CC2)CC(OCC(=O)N(C)C)CO3)nn1 (stereo not drawn) | 2.23%
* O=C(N1CCOCC1)[C@@]12CCO[C@@H]1CCN(CC1CCCCC1)C2 | -10%
* CNS(=O)(=O)c1cccc(C(C)NCc2nccn2C(C)C)c1 (stereo not drawn) | 16.2%
* Cc1cnn(CCNCC(=O)NCc2ccccc2)c1 | -4.68%
* CC(C)NC(=O)N1CCC2(COCc3cnc(-c4cccnc4)nc32)C1 (stereo not drawn) | 4.78%
* CC(C)(C)n1ncc2c1CCCC2NCc1cccc2c1OCO2 (stereo not drawn) | 6.24%
* CC(c1nc(C2CC2)no1)N1CCN(Cc2ccccc2F)CC1 (stereo not drawn) | 2.8%
* Cc1ncsc1C(=O)NCCSCCCO | -1.29%
* O=C(NCc1cccnc1-n1cccn1)C1CC(=O)N(CC2CC2)C1 (stereo not drawn) | 7.37%
* CC(=O)c1cc(CN2C[C@H]3CC[C@@H]2CN(S(=O)(=O)N(C)C)C3)cs1 | 6.18%
* Cc1n[nH]c(C)c1C1CCCN1C(=O)NCC(=O)NC(C)(C)C (stereo not drawn) | 2.27%
* Clc1ccccc1C1(c2ccnc(-c3ncccn3)n2)CCNCC1 | -2.76%
* O=c1[nH]c2nc(N3CCSCC3)ncc2c(=O)n1-c1cccc(F)c1 | 5.92%
* c1ccc(-c2noc(CN3CCOC(Cn4cccn4)C3)n2)nc1 (stereo not drawn) | -1.53%
* CN1CCCc2cc(NC(=O)N3CCOC(C(N)=O)C3)ccc21 (stereo not drawn) | -1.2%
* Cn1cc(CN2C[C@@H]3COC[C@@H](C(=O)N4CCCCO4)[C@@H]3C2)cn1 | 3.03%
* CCOCCCNC(=O)c1cc(C)nc(N2CCCC2)n1 | -11.1%
* CCn1cc(NC(=O)C2CCN(Cc3ccccc3C#N)CC2)cn1 | 1.5%
* CS(=O)(=O)NC[C@]12COC[C@H]1CN(C(=O)c1ccccc1)C2 | 0.645%
* CNC(=O)c1cc2c(nc1NCC1CC1)CCN(S(=O)(=O)C1CC1)CC2 | 8.39%
* O=S(=O)(NCc1ccccc1Cn1cncn1)C1CCCC1 | 1.5%
* CNC(=O)NC(=O)CN1CCC(c2c[nH]c3ccc(OC)cc23)CC1 | 4.69%
